melting point reference

# example entries with known answers
CC(C)C1CCC(C)(C)CC1C(=O)NC[C@H](C)c1ccccc1 (some centres unmarked) = 127 to 134 °C
CC(CNC(=O)C1CC(C)(C)CCC1C(C)C)c1ccccc1 (centres unmarked) = 80 to 85 °C
COc1ccc(CCNC(=O)C2CC(C)(C)CCC2C(C)C)cc1OC (centres unmarked) = 85 to 89 °C
COc1ccc(CCNC(=O)C2CC(C)(C)CCC2C(C)C)cc1 (centres unmarked) = 86 to 88 °C
CC(C)C1CCC(C)(C)CC1C(=O)NCC(=O)c1ccccc1 (centres unmarked) = 85 to 88 °C

Quick check: melting point of CC(C)C1CCC(C)(C)CC1C(=O)NC[C@@H](C)c1ccccc1 (some centres unmarked) ?
125 to 133 °C

Now consider CC(C)C1CCC(C)(C)CC1C(=O)NCCc1ccccc1 (centres unmarked) .
90 to 93 °C

// repeat for CC(C)C1CCC(C)(C)CC1C(=O)NCCc1ccc(O)cc1 (centres unmarked) and report
183 to 190 °C

###

Catalogue of pEC50 readings, one per entry.
TESTED_ON: human TRPM8 (Homo sapiens, UniProt Q7Z2W7)
Construct: The full-length human TRPM8 gene was amplified from plasmid RC220615 (manufactured by Origene) using a PCR method
Sequence (Q7Z2W7 whole entry): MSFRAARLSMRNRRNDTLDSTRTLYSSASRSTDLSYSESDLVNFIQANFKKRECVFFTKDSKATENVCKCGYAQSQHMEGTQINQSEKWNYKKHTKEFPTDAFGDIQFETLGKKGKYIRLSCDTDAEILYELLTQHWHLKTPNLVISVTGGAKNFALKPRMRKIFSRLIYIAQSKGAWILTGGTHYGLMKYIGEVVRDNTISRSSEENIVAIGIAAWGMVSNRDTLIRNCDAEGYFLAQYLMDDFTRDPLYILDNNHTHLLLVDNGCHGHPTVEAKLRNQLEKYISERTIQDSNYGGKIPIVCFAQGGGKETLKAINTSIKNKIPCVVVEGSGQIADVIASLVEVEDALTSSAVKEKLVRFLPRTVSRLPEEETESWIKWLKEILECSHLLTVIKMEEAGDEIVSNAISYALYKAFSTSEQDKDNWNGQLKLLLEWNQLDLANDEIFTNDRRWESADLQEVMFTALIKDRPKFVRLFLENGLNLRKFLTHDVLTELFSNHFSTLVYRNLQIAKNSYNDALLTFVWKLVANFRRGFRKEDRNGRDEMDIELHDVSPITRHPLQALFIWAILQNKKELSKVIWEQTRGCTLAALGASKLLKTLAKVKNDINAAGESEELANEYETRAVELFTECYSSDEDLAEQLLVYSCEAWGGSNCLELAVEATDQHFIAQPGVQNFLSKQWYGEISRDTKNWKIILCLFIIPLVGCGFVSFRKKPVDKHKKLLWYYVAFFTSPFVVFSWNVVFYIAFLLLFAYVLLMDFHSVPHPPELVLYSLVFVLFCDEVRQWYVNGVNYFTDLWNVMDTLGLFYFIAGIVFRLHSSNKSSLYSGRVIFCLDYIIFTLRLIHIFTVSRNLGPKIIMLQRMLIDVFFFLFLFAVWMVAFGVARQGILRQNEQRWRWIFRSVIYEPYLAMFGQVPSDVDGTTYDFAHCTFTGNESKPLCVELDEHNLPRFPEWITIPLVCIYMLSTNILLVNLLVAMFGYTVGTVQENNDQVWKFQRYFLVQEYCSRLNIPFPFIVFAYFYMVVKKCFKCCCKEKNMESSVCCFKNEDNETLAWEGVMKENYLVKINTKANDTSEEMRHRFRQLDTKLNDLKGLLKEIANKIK
ASSAY: Evaluation of human TRPM8 activity (cool-feeling intensity), calcium fluorescence in stable expression cells
TEST_CONTEXT: Fluo4-AM, 32° C., read-out: EC50 value in TRPM8 activation action
When answering, recall that pEC50 equals minus log10 of the concentration in mol/L, and write that number alone.

As a guide, the following entries are already answered.
CC(C)C1CCC(C)(C)CC1C(=O)NCC(=O)c1ccccc1 (centres unmarked) = 6.83
COc1ccc(CCNC(=O)C2CC(C)(C)CCC2C(C)C)cc1 (centres unmarked) = 6.80

Consider the compound shown here: CC(=O)OC(CNC(=O)C1CC(C)(C)CCC1C(C)C)c1ccccc1 (centres unmarked) What is its recorded pEC50?
6.27

Now consider CC(C)C1CCC(C)(C)CC1C(=O)NC[C@H](C)c1ccccc1 (some centres unmarked) and answer again.
6.21

Same for CC(C)C1CCC(C)(C)CC1C(=O)NCC(O)c1ccccc1 (centres unmarked)
7.39
